test system: human apolipoprotein B mRNA; assay: Inhibition of human apolipoprotein B mRNA levels in HepG2 cells, quantitative real-time PCR; assay type: cell-based; conditions: HepG2 cells; human apolipoprotein B mRNA; oligonucleotides targeting genomic sequence SEQ ID NO 334; averages from two experiments
In the oligonucleotide strings, read from the 5' end, every base follows the letter of its sugar. An asterisk marks phosphorothioate; unmarked linkages are phosphodiester. Other units and linkages are bracketed, terminal groups are in braces. A string of capitals states the bases alone. e = 2'-O-(2-methoxyethyl) (MOE); [5mC] = 5-methylcytosine; d = 2'-deoxy (DNA)
ATTRIBUTE_MEASURED: % INHIB (%)
Unit % implied. Number only.

For the substance 301162 (antisense e[5mC]*eA*eT*e[5mC]*eT*d[5mC]*dT*dG*dA*dG*d[5mC]*d[5mC]*d[5mC]*d[5mC]*dT*eT*eA*e[5mC]*e[5mC]*eA) [compound 301162] , what % INHIB is on record?
24

Another substance to look at: 301210 (antisense e[5mC]*eT*eA*eT*eG*dG*d[5mC]*dT*dG*dA*dG*d[5mC]*dT*dT*dG*e[5mC]*e[5mC]*eT*eA*eT) [compound 301210]
33

Another substance to look at: 301149 (eA*eG*e[5mC]*eA*eT*dA*dT*dT*dT*dT*dG*dA*dT*dG*dA*eG*e[5mC]*eT*eG*eA; antisense) [compound 301149]
44

Another substance to look at: 301165 (antisense eA*e[5mC]*eT*e[5mC]*e[5mC]*dT*dT*dT*d[5mC]*dT*dA*dT*dA*d[5mC]*d[5mC]*eT*eG*eG*e[5mC]*eT) [compound 301165]
47

Another substance to look at: 301077 (eG*eG*e[5mC]*eA*eG*dG*dA*dG*dG*dA*dA*d[5mC]*d[5mC]*dT*d[5mC]*eG*eG*eG*e[5mC]*eA; antisense) [compound 301077]
55

* * *

tested on: human apolipoprotein B mRNA; experiment: Inhibition of human apolipoprotein B mRNA levels in HepG2 cells, quantitative real-time PCR; format: cell-based; details: HepG2 cells; human apolipoprotein B mRNA; oligonucleotides targeting genomic sequence SEQ ID NO 334; averages from two experiments
In the oligonucleotide strings, read from the 5' end, every base follows the letter of its sugar. An asterisk marks phosphorothioate; unmarked linkages are phosphodiester. Other units and linkages are bracketed, terminal groups are in braces. A string of capitals states the bases alone. e = 2'-O-(2-methoxyethyl) (MOE); [5mC] = 5-methylcytosine; d = 2'-deoxy (DNA)
ATTRIBUTE_MEASURED: % INHIB

For the substance 301206 (antisense eG*eT*eT*eT*eT*d[5mC]*dA*dA*dA*dA*dG*dG*dT*dA*dT*eA*eA*eG*eG*eT) [compound 301206] , what % INHIB is on record?
28%

Another substance to look at: 301072 (eA*eT*eT*eT*eT*dA*dA*dA*dT*dT*dA*d[5mC]*dA*dG*dT*eA*eG*eA*eT*eA; antisense) [compound 301072]
43%

Another substance to look at: 301192 (antisense eT*eG*eA*eG*eG*dA*dT*dG*dT*dA*dA*dT*dT*dA*dG*e[5mC]*eA*e[5mC]*eT*eT) [compound 301192]
27%

* * *

Would you mind telling me the reported % Change in lipoprotein(a) secretion of each entry?
system: lipoprotein(a); assay: Lipoprotein(a) particle secretion from primary human hepatocytes, ELISA; type: cell-based; conditions: 150 nM, 24 hours
In the oligonucleotide strings, read from the 5' end, every base follows the letter of its sugar. An asterisk marks phosphorothioate; unmarked linkages are phosphodiester. Other units and linkages are bracketed, terminal groups are in braces. A string of capitals states the bases alone. e = 2'-O-(2-methoxyethyl) (MOE); [5mC] = 5-methylcytosine; d = 2'-deoxy (DNA)
Unit % implied. Number only.

// fetch lipoprotein(a) % Change in lipoprotein(a) secretion for 281625 (antisense eA*eG*eG*eT*eT*dA*d[5mC]*d[5mC]*dA*dG*d[5mC]*d[5mC]*dA*d[5mC]*dA*eT*eG*e[5mC]*eA*eG) [compound 281625]
−24

Another substance to look at: 271009 (antisense eG*e[5mC]*e[5mC]*eT*e[5mC]*dA*dG*dT*d[5mC]*dT*dG*d[5mC]*dT*dT*d[5mC]*eG*e[5mC]*eG*e[5mC]*e[5mC]) [compound 271009]
−42

Another substance to look at: 301012 (eG*e[5mC]*e[5mC]*eT*e[5mC]*dA*dG*dT*d[5mC]*dT*dG*d[5mC]*dT*dT*d[5mC]*eG*e[5mC]*eA*e[5mC]*e[5mC]) [compound 301012]
−37

Another substance to look at: 301027 (eG*e[5mC]*eT*e[5mC]*eA*d[5mC]*dT*dG*dT*dA*dT*dG*dG*dT*dT*eT*eT*eA*eT*e[5mC]; antisense) [compound 301027]
−44
